tested on: Gαi1 (N-terminal-truncated, hexahistidine-tagged human Gαi1), wild type (human, UniProt P63096 26-354)
Sequence (P63096 26-354): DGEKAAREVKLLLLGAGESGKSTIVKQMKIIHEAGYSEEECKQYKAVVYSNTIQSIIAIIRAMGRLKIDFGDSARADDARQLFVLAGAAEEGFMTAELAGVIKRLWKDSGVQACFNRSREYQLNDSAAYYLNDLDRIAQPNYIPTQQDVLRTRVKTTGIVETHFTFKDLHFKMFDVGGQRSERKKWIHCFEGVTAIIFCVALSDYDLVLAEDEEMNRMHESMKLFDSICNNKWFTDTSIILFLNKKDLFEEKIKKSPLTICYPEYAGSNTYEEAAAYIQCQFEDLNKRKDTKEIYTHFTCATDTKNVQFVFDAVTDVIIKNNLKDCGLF
experiment summary: fluorescence polarisation
Ends that are not written are not given here.
Quick list: Kd per entry.
Respond numerically; units are nM and should not be typed.

Some binders with recorded Kd:
DIEGLVELANRVQSSGAHDQRGLLRKEDLVLPEFLQ (domain or fragment, UniProt O08773 496-531, looked up, also: 6-IAF fluorescein on the unique Cys (not in given chain)) [GoLoco motif of RGS14 (496-531, Tenascin fusion) L504A]
2400
DIEGLVELLNRVQSSGAHDQRGLTRKEDLVLPEFLQ (domain or fragment, UniProt O08773 496-531, looked up, also: 6-IAF fluorescein on the unique Cys (not in given chain)) [GoLoco motif of RGS14 (496-531, Tenascin fusion) L519T]
16000

Then there is this binder:
[in] Suppose we examine the binder DIEGLVELLNRMQSSGAHDQRGLLRKEDLVLPEFLQ (domain or fragment, UniProt O08773 496-531, looked up, also: 6-IAF fluorescein on the unique Cys (not in given chain)) [GoLoco motif of RGS14 (496-531, Tenascin fusion) V507M] ; what Kd value has been reported?
[out] 1040
